assayComment: growth inhibition of S. aureus RN4220, primary screen, OD600 (AID 1259311);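 note: plate controls were untreated cells for no effect and reference antibiotic for full effect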
conditionNotes: OD600, 16 h, hits give high values
Out of some 330,000 compounds screened, about 1,100 (0.33%) were called active. The sample holds actives, similar compounds and a random draw of the others, so the mix is not that of the screen.
Parameter inhibition: see the listing below.
quantity: inhibition (%)

>>> observedmeasurement("O=C1CCC(O)CCN1CCC(Sc1ccccc1)c1ccccc1 (configuration not stated)")
10.9
>>> observedmeasurement("COc1ccc(NC(=O)/C(Cl)=C(/Cl)S(=O)Cc2ccc(C)cc2)cn1 (configuration not stated)")
93.4
>>> observedmeasurement("COc1ccc(-c2nnc(NC(=O)CS(=O)(=O)c3ccc(Cl)cc3)o2)c(OC)c1")
3.79
>>> observedmeasurement("COc1ccccc1C=NNC(=O)CO")
5.18
>>> observedmeasurement("CC(=O)c1cccc(NC(=O)C2COc3ccccc3O2)c1 (configuration not stated)")
4.71
>>> observedmeasurement("CC(=O)NN=C(C)CC(=O)Nc1ccc2c(c1)OCCO2")
1.21
>>> observedmeasurement("COc1ccc(CN2CCC(=O)N(C(CO)c3ccccc3)CC2)cc1OC (configuration not stated)")
-2.15
>>> observedmeasurement("CC(=NNC(=O)CNS(=O)(=O)c1ccc(C)cc1)c1cccc([N+](=O)[O-])c1")
-3.24
>>> observedmeasurement("COc1cc(NS(=O)(=O)c2ccc(NC(=O)c3ccc([N+](=O)[O-])cc3)cc2)ncn1")
2.54
>>> observedmeasurement("CCCOc1ccc(NC=CC(=O)C(C)(C)C)cc1")
7.56
>>> observedmeasurement("O=C(NN=Cc1ccc(OC(F)F)cc1OC(F)F)c1ccc(Br)cc1")
3.44
>>> observedmeasurement("Cc1ccccc1NC(=O)C(C)ON=Cc1cccc([N+](=O)[O-])c1 (configuration not stated)")
4.13
>>> observedmeasurement("O=C(Nc1ccc2ccccc2c1)Nc1ccc2snnc2c1")
106
>>> observedmeasurement("N#CC(=NNc1ccc(Cl)cc1)C(=N)N1CCCCC1")
-2.55
>>> observedmeasurement("Cc1cc(C(=O)CCl)c(C)n1CC1COc2ccccc2O1 (configuration not stated)")
93.5
>>> observedmeasurement("COc1ccc2c(c1)OC(O)(C(F)(F)C(F)F)CC2=O (configuration not stated)")
99.2
>>> observedmeasurement("N#C/C(=C/c1ccc(Cl)cc1)NC(=O)c1ccccc1")
-6.37
>>> observedmeasurement("O=C(NN=Cc1cccc(OCC(=O)N2CCCC2)c1)C(=O)Nc1ccccc1F")
5.07
>>> observedmeasurement("CCc1ccc(NC(=O)c2ccc(Cn3cc([N+](=O)[O-])cn3)cc2)cc1")
18.3
>>> observedmeasurement("CC(=NN=C(c1ccccc1)c1ccccc1)c1ccco1")
7.82
>>> observedmeasurement("COc1ccc(C(C)=NNC(=O)C(NC(=O)c2ccccc2)c2n[nH]c(=O)c3ccccc23)c(OC)c1 (configuration not stated)")
1.72
>>> observedmeasurement("CC(NC(=O)c1nc[nH]c1C(=O)NC(C)c1ccccc1)C(=O)OCc1ccccc1 (configuration not stated)")
6.68
>>> observedmeasurement("O=C1C=C(c2ccc3ncccc3c2)CC(c2ccc(F)cc2)C1 (configuration not stated)")
-2.12
>>> observedmeasurement("COc1cccc(-c2nnc(NC(=O)c3ccc(S(=O)(=O)N(CC(C)C)CC(C)C)cc3)o2)c1")
99.9
>>> observedmeasurement("Cc1cc(=O)[nH]c(NN=Cc2ccccc2Cl)n1")
2.01
>>> observedmeasurement("COc1ccc(CC(O)=C(C#N)c2nc3ccccc3[nH]2)cc1OC")
-2.45
>>> observedmeasurement("COC(=O)C1=C(c2ccc(C(C)=O)cc2)CC2CCC1N2C(=O)NCc1ccc(F)cc1 (configuration not stated)")
1.41

FYI, the data here is from PubChem BioAssay AID1259311.
